Below, each of the compounds is paired with its reported TGI value.
# Test system: LOX IMVI melanoma
# test details: NCI tumour cell line growth inhibition, 48 h
Numbers only; they are read as µM.

Worked cases, answers included:
>>> val("CN(C(=O)C12C3C4C5C3C1(C(=O)O)C5C42)C(C)(C)C (stereo not given)")
65.1
>>> val("COc1cc(C2c3cc4c(cc3[C@@H](Nc3ccc(C#N)cc3)C3COC(=O)[C@H]23)OCO4)cc(OC)c1O (stereo not given in full)")
9.52
>>> val("CCCCn1c2c(n(CCCC)c1=S)-c1c(n(CCCC)c(=S)n1CCCC)S[Se][Se]S2")
27.2
>>> val("COc1ccc2nc3cc([N+](=O)[O-])ccc3c(NCCCCCN(C)C)c2c1")
1.1
>>> val("COc1ccc2c(c1)O/C(=C\\c1cccc(OCC(=O)Nc3nc4c(s3)CCCC4)c1)C2=O")
3.32

Let us move to another entry and its TGI.
Tell me the measured TGI of Nc1c2ccccc2nc2c1ccc1ncccc12 , please. 53.5
